- experiment: Pharmacokinetics in SD rats
- Type: in vivo
- run.parameters: rat, plasma, iv tail vein 1 mg/kg
reported.metric: AUC(0-inf) (ng·h/mL)
Report as a plain number; the unit ng·h/mL is understood.

Query: What measured AUC(0-inf) goes with CCN1CCN(C(=O)c2ccc(Nc3ncc(F)c(-c4ccc5nc(N(C)C)sc5c4)n3)nc2)CC1 ?
Reply: 1500

----------
- experiment: Pharmacokinetics in SD rats
- Type: in vivo
- run.parameters: rat, plasma, po gavage 10 mg/kg, read-out: t ½ (converted)
reported.metric: half-life (h)
# output: bare number, implied unit h

Query: Item CCN1CCN(C(=O)c2ccc(Nc3ncc(F)c(-c4ccc5nc(N(C)C)sc5c4)n3)nc2)CC1 [Example 31] has what recorded half-life?
Reply: 5.08

----------
- experiment: Pharmacokinetics in SD rats
- Format: in vivo
- run.parameters: rat, plasma, po gavage 10 mg/kg
reported.metric: AUC(0-inf) (ng·h/mL)
Write the answer as a number in ng·h/mL, unit excluded.

Query: I have this compound here, CCN1CCN(C(=O)c2ccc(Nc3ncc(F)c(-c4ccc5nc(N(C)C)sc5c4)n3)nc2)CC1 , and I need its recorded AUC(0-inf).
Reply: 8380

----------
- Test system: human glioma (U251) cell line
- experiment: MTT cancer cell proliferation, U251
- Type: cell-based
- run.parameters: U-251, MTT, 72 hours, read-out: IC50 proliferation U251
reported.metric: pIC50
Quick note: pIC50 means taking -log10 of the concentration in moles per liter.

Query: Look at this compound and give its reported pIC50. CC(=O)c1c(C)c2cnc(Nc3ccc(N4CCNCC4)cn3)nc2n(C2CCCC2)c1=O [Palbociclib, reference compound]
Reply: 5.36

----------
- Tested on: triple negative breast cancer (MDA-MB-231) cell line
- experiment: MTT cancer cell proliferation, MDA-MB-231
- Format: cell-based
- run.parameters: Homo sapiens, MDA-MB-231, 72 h, read-out: IC50 proliferation MDA-MB-231
reported.metric: IC50 (nM)
Please state the figure in nM; there is no need to write the unit.

Query: Could you tell me which IC50 is on file for CCN1CCN(C(=O)c2ccc(Nc3ncc(F)c(-c4ccc5nc(N(C)C)sc5c4)n3)nc2)CC1 ?
Reply: 1750

----------
- Test system: colon cancer (HT-29) cell line
- experiment: MTT cancer cell proliferation, HT-29
- Assay type: cell-based
- run.parameters: Homo sapiens, HT-29, 72 h, read-out: IC50 proliferation HT-29
reported.metric: IC50 (nM)
// units = nM; emit number, no label

Query: State the recorded IC50 for this entry: CCN1CCN(C(=O)c2ccc(Nc3ncc(F)c(-c4ccc5nc(N(C)C)sc5c4)n3)nc2)CC1 [Example 31]
Reply: 1870

----------
reported.metric: pIC50
pIC50 is a log-scale quantity: -log10 of the concentration expressed in molar.

Query: Checklist item: pIC50 tested on DYRK2 kinase (Homo sapiens (Human)), entry CCN1CCN(C(=O)c2ccc(Nc3ncc(F)c(-c4ccc5nc(N(C)C)sc5c4)n3)nc2)CC1 , value?
Reply: 8.05
